# targetEntity: EGFR L858R/T790M/C797S (Homo sapiens, UniProt P00533, C797S/L858R/T790M)
# Sequence (P00533 25-1210 T790M/C797S/L858R): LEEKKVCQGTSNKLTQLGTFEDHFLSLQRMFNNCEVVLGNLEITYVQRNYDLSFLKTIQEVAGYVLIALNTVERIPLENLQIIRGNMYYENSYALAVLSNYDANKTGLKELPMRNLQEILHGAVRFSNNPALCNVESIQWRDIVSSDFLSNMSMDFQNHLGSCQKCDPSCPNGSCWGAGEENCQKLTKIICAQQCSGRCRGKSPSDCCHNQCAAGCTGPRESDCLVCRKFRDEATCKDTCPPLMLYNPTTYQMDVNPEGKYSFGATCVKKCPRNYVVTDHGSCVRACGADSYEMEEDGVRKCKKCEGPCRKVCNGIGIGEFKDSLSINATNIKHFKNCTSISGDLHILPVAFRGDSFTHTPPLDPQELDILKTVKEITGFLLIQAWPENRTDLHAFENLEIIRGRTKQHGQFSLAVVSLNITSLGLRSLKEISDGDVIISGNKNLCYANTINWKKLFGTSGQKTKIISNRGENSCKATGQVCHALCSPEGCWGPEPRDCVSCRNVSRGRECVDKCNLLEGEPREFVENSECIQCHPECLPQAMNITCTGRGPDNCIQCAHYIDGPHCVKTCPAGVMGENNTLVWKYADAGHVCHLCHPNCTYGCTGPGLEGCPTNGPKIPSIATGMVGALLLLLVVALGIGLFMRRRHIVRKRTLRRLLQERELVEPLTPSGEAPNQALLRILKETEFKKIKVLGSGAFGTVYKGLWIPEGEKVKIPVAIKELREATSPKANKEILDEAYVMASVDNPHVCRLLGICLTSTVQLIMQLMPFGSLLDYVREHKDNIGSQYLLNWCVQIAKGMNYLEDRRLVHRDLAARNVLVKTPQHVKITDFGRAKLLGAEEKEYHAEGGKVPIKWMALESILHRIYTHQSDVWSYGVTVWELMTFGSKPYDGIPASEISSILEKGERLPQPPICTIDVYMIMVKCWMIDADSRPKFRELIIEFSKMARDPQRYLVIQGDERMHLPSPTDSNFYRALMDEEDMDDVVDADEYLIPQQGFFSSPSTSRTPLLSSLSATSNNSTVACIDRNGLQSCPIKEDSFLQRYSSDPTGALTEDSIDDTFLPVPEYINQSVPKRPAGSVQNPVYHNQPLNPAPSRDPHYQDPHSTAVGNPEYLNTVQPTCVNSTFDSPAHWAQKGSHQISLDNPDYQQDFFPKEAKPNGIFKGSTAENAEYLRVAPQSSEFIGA
# testProtocol: Biochemical EGFR kinase inhibition assay (Lance Ultra TR-FRET), triple mutant L858R/T790M/C797S
# measurementContext: IC50 L858R/T790M/C797S (nM), 100 μM ATP
Known log10(IC50) of a selection of compounds
Heads up: the numbers are on a log10 scale; they represent IC50 in nM.

Past entries and their recorded results:
Cc1cnc(C#Cc2cnc(Nc3ccnc(-c4cnn(S(=O)(=O)C5CC5)c4)n3)cc2N[C@@H]2CCC[C@H](O)C2)cn1	0.76
CN(C)CC1(C)CCN(c2cc(Nc3ccnc(-c4cnn(S(=O)(=O)C5CC5)c4)n3)ncc2C#CC2CCN(C(=O)C(F)(F)F)C2)CC1 (stereo not shown)	0.43
O=S(=O)(C1CC1)n1cc(-c2nccc(Nc3cc(N4CCC[C@@H](O)C4)c(C#Cc4cnn(CCF)c4)cn3)n2)cn1	0.11
Cn1cnc(C#Cc2cnc(Nc3ccnc(-c4cnn(S(=O)(=O)C5CC5)c4)n3)cc2NCC(C)(C)CO)c1	1.42
Cn1cc(C#Cc2cnc(Nc3ccnc(-c4cnn(S(=O)(=O)C5CC5)c4)n3)cc2N2CCCC(F)C2)cn1 (stereo not shown)	1.02

Problem: I am curious: what log10(IC50) value has been reported for CN(C)Cc1ccc(C#Cc2cnc(Nc3ccnc(-c4cnn(S(=O)(=O)C5CC5)c4)n3)cc2N2CCC(C)(CO)CC2)cn1 ?
Solution: -0.52

Problem: I am curious: what log10(IC50) value has been reported for CC1(CO)CCN(c2cc(Nc3ccnc(-c4cnn(S(=O)(=O)C5CC5)c4)n3)ncc2C#CC2CCS(=O)(=O)C2)CC1 (stereo not shown) ?
Solution: -1.00

---

# targetEntity: EGFR wildtype (WT) (Homo sapiens)
# Sequence (P00533 25-1210): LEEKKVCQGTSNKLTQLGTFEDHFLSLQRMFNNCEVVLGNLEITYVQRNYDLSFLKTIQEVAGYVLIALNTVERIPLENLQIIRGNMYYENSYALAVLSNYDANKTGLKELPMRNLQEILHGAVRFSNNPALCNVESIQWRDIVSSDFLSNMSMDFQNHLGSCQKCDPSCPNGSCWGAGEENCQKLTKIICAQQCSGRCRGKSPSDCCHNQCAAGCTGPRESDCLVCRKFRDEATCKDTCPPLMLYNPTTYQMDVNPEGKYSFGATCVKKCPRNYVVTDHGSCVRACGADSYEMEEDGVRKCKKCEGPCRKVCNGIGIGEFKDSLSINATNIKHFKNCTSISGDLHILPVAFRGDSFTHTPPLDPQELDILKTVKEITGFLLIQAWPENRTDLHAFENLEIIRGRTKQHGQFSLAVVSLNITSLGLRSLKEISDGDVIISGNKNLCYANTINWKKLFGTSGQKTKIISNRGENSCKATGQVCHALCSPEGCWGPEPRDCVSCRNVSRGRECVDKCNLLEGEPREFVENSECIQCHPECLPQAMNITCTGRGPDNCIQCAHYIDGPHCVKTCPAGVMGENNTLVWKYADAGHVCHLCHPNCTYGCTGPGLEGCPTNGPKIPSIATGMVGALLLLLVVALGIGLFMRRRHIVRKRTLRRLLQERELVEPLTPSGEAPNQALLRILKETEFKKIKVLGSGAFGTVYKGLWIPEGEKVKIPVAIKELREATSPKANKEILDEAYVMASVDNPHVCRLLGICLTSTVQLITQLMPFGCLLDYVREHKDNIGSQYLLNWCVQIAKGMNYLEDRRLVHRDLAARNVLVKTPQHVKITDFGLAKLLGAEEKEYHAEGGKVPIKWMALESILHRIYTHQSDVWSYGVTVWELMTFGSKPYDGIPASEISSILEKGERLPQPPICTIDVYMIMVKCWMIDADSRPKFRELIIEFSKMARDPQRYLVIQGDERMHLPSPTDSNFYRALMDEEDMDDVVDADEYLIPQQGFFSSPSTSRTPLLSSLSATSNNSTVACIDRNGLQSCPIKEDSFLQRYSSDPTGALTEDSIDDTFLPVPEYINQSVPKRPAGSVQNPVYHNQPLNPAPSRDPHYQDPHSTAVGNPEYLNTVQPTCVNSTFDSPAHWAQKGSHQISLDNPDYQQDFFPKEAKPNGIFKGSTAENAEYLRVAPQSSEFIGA
# testProtocol: Biochemical EGFR kinase inhibition assay (Lance Ultra TR-FRET), wildtype
# measurementContext: IC50 WT (nM), 100 μM ATP
Where a name gives a salt, the structure may show the parent alone.
propertyName: IC50

Past entries and their recorded results:
CC1(C)CN(c2cc(Nc3ccnc(-c4cnn(S(=O)(=O)C5CC5)c4)n3)ncc2C#Cc2ccsc2)CCC1O (stereo not shown) [Example 229]	> 10000 nM
CN1CCC2(CCN(c3cc(Nc4ccnc(-c5cnn(S(=O)(=O)C6CC6)c5)n4)ncc3C#Cc3cnn(C)c3)CC2)C1 [Example 297, formate]	4180 nM
CC1(C#Cc2cnc(Nc3ccnc(-c4cnn(S(=O)(=O)C5CC5)c4)n3)cc2N2CCC(C)(CO)CC2)CC1 [Example 358]	6280 nM
Cn1cc(C#Cc2cnc(Nc3ccnc(-c4cnn(S(=O)(=O)C5CC5)c4)n3)cc2N2CCC(C(F)(F)F)CC2)cn1 [Example 65]	> 10000 nM
CN(C)CC1(C)CCN(c2cc(Nc3ccnc(-c4cnn(S(=O)(=O)C5CC5)c4)n3)ncc2C#CC2(C)CC2)CC1 [Example 406]	> 10000 nM

Problem: I am curious: what IC50 value has been reported for CC1(CO)CCN(c2cc(Nc3ccnc(-c4cnn(S(=O)(=O)C5CC5)c4)n3)ncc2C#CC2CC2)CC1 [Example 250] ?
Solution: > 10000 nM

Problem: I am curious: what IC50 value has been reported for CC(C)Nc1cc(Nc2ccnc(-c3cnn(S(=O)(=O)C4CC4)c3)n2)ncc1C#CCCCCNC(=O)N1CCOCC1 [Example 209] ?
Solution: > 10000 nM
